Cited source: patent US20240360154A1

target: p-BTK (C481S) (Homo sapiens (Human), UniProt Q06187, C481S); assay: p-BTK cell experiment, HEK293 transfected with C481S-BTK plasmid (P-BTK Y223 sandwich ELISA); conditions: HEK293 cells, compound cultured for two hours
Sequence (Q06187 whole entry C481S): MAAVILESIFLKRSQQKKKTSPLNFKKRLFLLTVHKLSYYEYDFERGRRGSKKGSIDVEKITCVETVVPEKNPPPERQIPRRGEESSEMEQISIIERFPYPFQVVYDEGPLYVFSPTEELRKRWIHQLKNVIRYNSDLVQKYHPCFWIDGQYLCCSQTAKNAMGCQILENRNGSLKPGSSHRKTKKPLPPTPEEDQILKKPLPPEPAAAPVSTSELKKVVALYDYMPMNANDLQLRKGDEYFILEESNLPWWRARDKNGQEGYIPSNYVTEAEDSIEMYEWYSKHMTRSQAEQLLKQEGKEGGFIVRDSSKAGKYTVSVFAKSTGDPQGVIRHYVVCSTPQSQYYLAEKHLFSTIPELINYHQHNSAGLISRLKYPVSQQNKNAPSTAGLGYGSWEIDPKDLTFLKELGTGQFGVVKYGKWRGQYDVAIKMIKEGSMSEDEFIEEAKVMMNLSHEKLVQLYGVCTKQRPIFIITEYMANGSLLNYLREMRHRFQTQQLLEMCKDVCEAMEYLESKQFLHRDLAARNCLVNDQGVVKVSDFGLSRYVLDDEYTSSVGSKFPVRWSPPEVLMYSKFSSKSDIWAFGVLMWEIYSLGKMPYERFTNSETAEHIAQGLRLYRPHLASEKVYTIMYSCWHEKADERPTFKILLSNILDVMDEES
PROPERTY: IC50 (nM)

a = COC[C@]1(C)Nc2c(cnc3[nH]cc(C(=O)c4ccc(Oc5c(F)cccc5OC)cc4Cl)c23)NC1=O
b = CN1CC[C@@]2(C1)Nc1c(cnc3[nH]cc(C(=O)c4ccc(Oc5ccccc5)cc4Cl)c13)NC2=O (single isomer, unassigned)
c = [2H]C([2H])([2H])OC[C@]1(C([2H])([2H])[2H])Nc2c(cnc3[nH]cc(C(=O)c4ccc(Oc5ccccc5)cc4Cl)c23)NC1=O
Order the items by recorded IC50; the first position goes to the largest value. To answer, write out the labels according to the requested order.
b, c, a

a = C[C@@]1(CO)Nc2c(cnc3[nH]cc(C(=O)c4ccc(Oc5ccccc5)cc4Cl)c23)NC1=O (single isomer, unassigned)
b = COC1CCC2(C1)Nc1c(cnc3[nH]cc(C(=O)c4ccc(Oc5ccccc5)cc4Cl)c13)NC2=O (single isomer, unassigned)
Out of a and b , name the one with the higher IC50. State the label of the item chosen.
a
(a: 134 nM, b: 32.7 nM)
